Each record here notes measured IC50.
Molecular target: CDK6/CyclinD1 (Homo sapiens (Human), UniProt Q00534)
Sequence (Q00534 whole entry): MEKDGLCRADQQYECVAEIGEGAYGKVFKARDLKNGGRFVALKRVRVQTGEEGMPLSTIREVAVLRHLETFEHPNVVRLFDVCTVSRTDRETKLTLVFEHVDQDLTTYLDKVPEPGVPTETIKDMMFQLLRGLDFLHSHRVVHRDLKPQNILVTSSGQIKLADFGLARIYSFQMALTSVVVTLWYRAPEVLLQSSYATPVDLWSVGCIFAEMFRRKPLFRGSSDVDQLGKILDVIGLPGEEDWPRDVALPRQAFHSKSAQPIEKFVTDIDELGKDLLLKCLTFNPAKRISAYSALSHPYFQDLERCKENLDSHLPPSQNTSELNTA
Sequence (P24385 whole entry partner): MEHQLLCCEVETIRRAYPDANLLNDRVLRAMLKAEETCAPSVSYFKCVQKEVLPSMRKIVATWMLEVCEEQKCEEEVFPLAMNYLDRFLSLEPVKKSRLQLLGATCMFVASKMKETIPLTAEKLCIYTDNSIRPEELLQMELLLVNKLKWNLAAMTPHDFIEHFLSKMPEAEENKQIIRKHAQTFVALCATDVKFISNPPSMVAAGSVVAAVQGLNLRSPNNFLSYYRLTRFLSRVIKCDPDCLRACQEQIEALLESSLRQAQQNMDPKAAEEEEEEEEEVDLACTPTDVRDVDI
Assay: CDK6/CyclinD1 enzyme activity test (LANCE Ultra TR-FRET)
Conditions: 250 μM ATP, 25° C. 120 minutes, read-out: CDK6/Cyclin D1 IC50
I only need the number, in nM, no unit after it.

[ask] API: value(readout= IC50, system= CDK6/CyclinD1 (Homo sapiens (Human), UniProt Q00534), query= C[C@@]1(O)CCC[C@H]1Nc1nccc2cnc(NC3CCN(S(C)(=O)=O)CC3)nc12 [Compound 1] )
[reply] 2.28

[ask] Try the compound CS(=O)(=O)N1CCC(Nc2ncc3cc(C(F)F)nc(N[C@@H]4CCCC4(F)F)c3n2)CC1 (single isomer, unassigned) [Compound 22]
[reply] 1.36

[ask] Try the compound Cc1cc2cnc(NC3CCN(S(C)(=O)=O)CC3)nc2c(N[C@@H]2CCC[C@@]2(C)O)n1 (racemic) [Compound 6]
[reply] 1.56

[ask] Try the compound Cc1cn(C)nc1Nc1nc(C(F)F)cc2cnc(NC3CCN(S(C)(=O)=O)CC3)nc12 [Compound 19]
[reply] 1.15

[ask] Try the compound Cn1cc(Cl)c(Nc2nc(C(F)F)cc3cnc(NC4CCN(S(C)(=O)=O)CC4)nc23)n1 [Compound 20]
[reply] 0.56

[ask] Try the compound C[C@@]1(O)CCC[C@H]1Nc1nc(C(F)F)cc2cnc(NC3CCN(S(C)(=O)=O)CC3)nc12 [Compound 14]
[reply] 1.69
